- target-of-assay: full length human TREX1 (Homo sapiens, UniProt Q9NSU2)
- Construct: N-terminally His-Tev tagged full length human TREX1; His-Tev (His tag with TEV protease site) (N)
- Sequence (Q9NSU2 whole entry): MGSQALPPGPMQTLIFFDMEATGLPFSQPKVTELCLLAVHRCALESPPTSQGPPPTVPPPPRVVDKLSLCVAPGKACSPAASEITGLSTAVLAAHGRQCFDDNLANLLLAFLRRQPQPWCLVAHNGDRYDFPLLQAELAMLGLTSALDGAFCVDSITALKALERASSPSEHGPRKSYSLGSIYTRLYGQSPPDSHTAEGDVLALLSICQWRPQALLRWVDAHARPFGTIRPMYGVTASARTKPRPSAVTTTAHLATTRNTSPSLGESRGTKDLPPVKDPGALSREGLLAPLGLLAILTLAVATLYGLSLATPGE
- procedure-text: TREX1 Biochemical Assay (fluorescence assay, degradation of dsDNA substrate)
- applied-conditions: 150 pM TREX1, 60 nM dsDNA substrate, 25 minutes at room temperature; read-out: hTREX1 EC50
Consider the following compounds; for each one, report its EC50.

Quickly give me recorded EC50 for CC[C@@H](c1cccc(OC)c1Cl)N(Cc1cnc(C(=O)O)c(N)c1)C(=O)c1cc(F)cc(F)c1
< 0.1 µM

Quickly give me recorded EC50 for O=C(c1ccc(F)c(Br)c1)N(Cc1cccnc1)Cc1ccc(Cl)cc1Cl
1 to 10 µM

Quickly give me recorded EC50 for O=C(c1ccc(Cl)cc1Br)N(Cc1cccnc1)Cc1ccc(Cl)cc1Cl
> 10 µM

Quickly give me recorded EC50 for CNC(=O)c1ccc(CN(Cc2ccc(Cl)cc2Cl)C(=O)c2cccc(F)c2)cn1
1 to 10 µM

Quickly give me recorded EC50 for COc1cc(C(=O)O)ncc1CN(Cc1cccc(Cl)c1Cl)C(=O)c1cc(F)cc(F)c1
< 0.1 µM

Quickly give me recorded EC50 for CC(C)(C)OC(=O)Nc1cncc(CN(Cc2cccc(Cl)c2Cl)C(=O)c2cc(F)cc(F)c2)c1
0.1 to 1 µM

Quickly give me recorded EC50 for O=C(c1ccccc1)N(Cc1cccnc1)Cc1cc(Cl)cc(Cl)c1
> 10 µM

Quickly give me recorded EC50 for Cc1nonc1C(=O)N(Cc1cccnc1)Cc1ccc(Cl)cc1Cl
> 10 µM

Quickly give me recorded EC50 for O=C(c1ccon1)N(Cc1cccnc1)Cc1ccc(Cl)cc1Cl
> 10 µM

Quickly give me recorded EC50 for O=C(c1ccc(Oc2ccc(F)cc2)cc1)N(Cc1cccnc1)Cc1ccc(Cl)cc1Cl
> 10 µM

Quickly give me recorded EC50 for O=C(c1ccc(Cl)cc1)N(Cc1cccnc1)Cc1cc(Cl)cc(Cl)c1
> 10 µM

Quickly give me recorded EC50 for COc1ccccc1CN(Cc1cccnc1)C(=O)c1cccc(F)c1
> 10 µM

Quickly give me recorded EC50 for CC[C@H](c1cccc(Cl)c1Cl)N(Cc1ccc(C(=O)O)nc1)C(=O)c1cc(F)cc(F)c1 [Compound 255]
< 0.1 µM

Quickly give me recorded EC50 for COc1cccc(CN(Cc2ccc(NC(C)=O)nc2)C(=O)c2cccc(F)c2)c1Cl
> 10 µM

Quickly give me recorded EC50 for O=C(c1cocn1)N(Cc1cccnc1)Cc1ccc(Cl)cc1Cl
> 10 µM

Quickly give me recorded EC50 for O=C(c1ccc2ccccc2c1)N(Cc1cccnc1)Cc1ccc(Cl)cc1Cl
> 10 µM

Quickly give me recorded EC50 for CC[C@H](c1cccc(OC2COC2)c1Cl)N(Cc1ccc(C(=O)O)nc1)C(=O)c1cc(F)cc(F)c1
0.1 to 1 µM

Quickly give me recorded EC50 for O=C(c1cc(Cl)ccc1O)N(Cc1cccnc1)Cc1ccc(Cl)cc1Cl
> 10 µM

Quickly give me recorded EC50 for O=C(c1ccc(Cl)c(Cl)c1)N(Cc1cccnc1)Cc1cc(Cl)cc(Cl)c1
> 10 µM

Quickly give me recorded EC50 for COc1ccnc(CN(Cc2ccc(C(=O)O)nc2)C(=O)c2cc(F)cc(F)c2)c1Cl
0.1 to 1 µM

Quickly give me recorded EC50 for O=C(O)c1ccc(CN(Cc2ccc(Cl)cc2Cl)C(=O)c2cc(F)cc(F)c2)cc1
1 to 10 µM

Quickly give me recorded EC50 for O=C(c1ccc(F)c(F)c1F)N(Cc1cccnc1)Cc1ccc(Cl)cc1Cl
1 to 10 µM

Quickly give me recorded EC50 for CCOc1cccc([C@H](CC)N(Cc2ccc(C(=O)O)nc2)C(=O)c2cc(F)cc(F)c2)c1Cl
< 0.1 µM

Quickly give me recorded EC50 for CC(C)[C@H](c1ccc(Cl)cc1Cl)N(Cc1cccnc1)C(=O)c1cccc(F)c1 (single isomer, unassigned)
1 to 10 µM

Quickly give me recorded EC50 for NCCC[C@H](c1cccc(Cl)c1Cl)N(Cc1cccnc1)C(=O)c1cc(F)cc(F)c1
1 to 10 µM

Quickly give me recorded EC50 for O=C(c1ccc(CO)cc1)N(Cc1cccnc1)Cc1cc(Cl)cc(Cl)c1
> 10 µM

Quickly give me recorded EC50 for NCC[C@@H](c1cccc(Cl)c1Cl)N(Cc1cccnc1)C(=O)c1cc(F)cc(F)c1
> 10 µM

Quickly give me recorded EC50 for O=C(O)c1ccc(CN(Cc2ncc3ccccc3c2Cl)C(=O)c2cc(F)cc(F)c2)cn1
< 0.1 µM

Quickly give me recorded EC50 for O=C(c1ccccc1N1CCCCC1)N(Cc1cccnc1)Cc1ccc(Cl)cc1Cl
> 10 µM

Quickly give me recorded EC50 for C[C@H](c1cccc(Cl)c1Cl)N(Cc1ccc(C(=O)O)nc1)C(=O)c1cc(F)cc(F)c1
0.1 to 1 µM

Quickly give me recorded EC50 for COc1nc(C(=O)O)ccc1CN(Cc1cccc(Cl)c1Cl)C(=O)c1cc(F)cc(F)c1
1 to 10 µM

Quickly give me recorded EC50 for CC[C@@H](c1cccc(OC)c1Cl)N(Cc1ccc(C(=O)O)nc1)C(=O)c1cc(F)cc(F)c1
< 0.1 µM

Quickly give me recorded EC50 for CC[C@H](c1cccc(Cl)c1Cl)N(Cc1cnc(C(=O)O)c(N)c1)C(=O)c1cc(F)cc(F)c1
< 0.1 µM

---

- target-of-assay: human TREX2 (residues M44-A279) (Homo sapiens, UniProt Q9BQ50)
- Construct: human TREX2 (residues M44-A279, expressed in E. coli); His-Tev (His tag with TEV protease site) (N)
- Sequence (Q9BQ50 whole entry, the tested form may be a part): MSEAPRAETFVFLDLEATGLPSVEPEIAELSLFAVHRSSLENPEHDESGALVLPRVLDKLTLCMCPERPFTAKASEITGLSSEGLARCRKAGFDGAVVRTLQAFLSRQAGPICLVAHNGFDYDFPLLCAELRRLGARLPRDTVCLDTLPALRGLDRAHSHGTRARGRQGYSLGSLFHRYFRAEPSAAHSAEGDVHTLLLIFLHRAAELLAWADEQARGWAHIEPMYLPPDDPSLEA
- procedure-text: TREX2 Biochemical Assay (fluorescence assay, degradation of dsDNA substrate)
- applied-conditions: 2.5 nM TREX2, 60 nM dsDNA substrate, 25 minutes at room temperature; read-out: hTREX2 EC50
readout-name: EC50

Quickly give me recorded EC50 for O=C(c1cccc(F)c1)N(Cc1ccc(C(F)(F)F)nc1)Cc1ccc(Cl)cc1Cl [Compound 105]
> 100 µM

Quickly give me recorded EC50 for O=C1NCc2cc(CN(Cc3ccccc3Cl)C(=O)c3cc(F)cc(F)c3)cnc21 [Compound 182]
10 to 100 µM

Quickly give me recorded EC50 for O=C(c1cc(Br)c(O)c(Br)c1)N(Cc1cccnc1)Cc1ccc(Cl)cc1Cl [Compound 40]
> 100 µM

Quickly give me recorded EC50 for O=C(c1cccc(F)c1)N(CCc1ccccc1)Cc1cccnc1 [Compound 131]
> 100 µM

Quickly give me recorded EC50 for CC[C@H](c1ccc2c(c1Cl)OCO2)N(Cc1ccc(C(=O)O)nc1)C(=O)c1cc(F)cc(F)c1 [Compound 233]
1 to 10 µM

Quickly give me recorded EC50 for NC(=O)Cc1ccc(CN(Cc2ccc(Cl)cc2Cl)C(=O)c2cc(F)cc(F)c2)cn1 [Compound 217]
> 100 µM

Quickly give me recorded EC50 for Nc1ccc(CN(Cc2ccc(Cl)cc2Cl)C(=O)c2cccc(F)c2)cn1 [Compound 146]
> 100 µM

Quickly give me recorded EC50 for O=C(c1cncnc1)N(Cc1cccnc1)Cc1ccc(Cl)cc1Cl [Compound 100]
> 100 µM

Quickly give me recorded EC50 for O=C(c1cccc(-c2ccccc2)c1)N(Cc1cccnc1)Cc1cc(Cl)cc(Cl)c1 [Compound 56]
> 100 µM

Quickly give me recorded EC50 for C[C@H](c1ccc(Cl)cc1Cl)N(Cc1cccnc1)C(=O)c1cccc(F)c1 [Compound 155]
10 to 100 µM

Quickly give me recorded EC50 for Cc1ccc(CN(Cc2ccc(Cl)cc2Cl)C(=O)c2cccc(F)c2)cn1 [Compound 110]
> 100 µM

Quickly give me recorded EC50 for O=C(c1cocn1)N(Cc1cccnc1)Cc1ccc(Cl)cc1Cl [Compound 113]
> 100 µM

Quickly give me recorded EC50 for C[C@@H](c1cccc(Cl)c1Cl)N(Cc1ccc(C(=O)O)nc1)C(=O)c1cc(F)cc(F)c1 [Compound 174]
< 1 µM

Quickly give me recorded EC50 for COc1ccnc(CN(Cc2ccc(C(=O)O)nc2)C(=O)c2cc(F)cc(F)c2)c1Cl [Compound 189]
10 to 100 µM

Quickly give me recorded EC50 for O=C(c1cccc(F)c1)N(Cc1cnccn1)Cc1ccc(Cl)cc1Cl [Compound 111]
> 100 µM

Quickly give me recorded EC50 for O=C(c1ccc(F)c(Br)c1)N(Cc1cccnc1)Cc1cc(Cl)cc(Cl)c1 [Compound 38]
> 100 µM

Quickly give me recorded EC50 for CC[C@H](c1ccc(Cl)cc1Cl)N(Cc1cccnc1)C(=O)c1cccc(F)c1 (single isomer, unassigned) [Compound 157]
10 to 100 µM

Quickly give me recorded EC50 for O=C(O)c1ccc(CN(Cc2cccc(Cl)c2Cl)C(=O)c2cc(F)cc(F)c2)c(O)n1 [Compound 247]
10 to 100 µM

Quickly give me recorded EC50 for O=C(c1ccccc1Oc1ccccc1)N(Cc1cccnc1)Cc1ccc(Cl)cc1Cl [Compound 44]
> 100 µM

Quickly give me recorded EC50 for CC[C@@H](c1ccc(Cl)cc1Cl)N(Cc1cccnc1)C(=O)c1cccc(F)c1 (single isomer, unassigned) [Compound 158]
10 to 100 µM

Quickly give me recorded EC50 for O=C(c1cccc(-c2ccccc2)c1)N(Cc1cccnc1)Cc1ccc(Cl)cc1Cl [Compound 43]
> 100 µM

Quickly give me recorded EC50 for Cc1cc(-c2ccc(CN(Cc3ccccc3Cl)C(=O)c3cc(F)cc(F)c3)cn2)[nH]n1 [Compound 219]
10 to 100 µM

Quickly give me recorded EC50 for CC[C@H](c1cccc(OC2COC2)c1Cl)N(Cc1ccc(C(=O)O)nc1)C(=O)c1cc(F)cc(F)c1 [Compound 231]
1 to 10 µM

Quickly give me recorded EC50 for O=C(C1CCOCC1)N(Cc1cccnc1)Cc1ccc(Cl)cc1Cl [Compound 89]
> 100 µM

Quickly give me recorded EC50 for O=C(c1cccc(F)c1)N(Cc1cccnc1)Cc1cc(Cl)cc(Cl)c1 [Compound 23]
> 100 µM

Quickly give me recorded EC50 for CC(C)(C)c1ccc(C(=O)N(Cc2cccnc2)Cc2ccc(Cl)cc2Cl)cc1 [Compound 82]
> 100 µM

Quickly give me recorded EC50 for O=C(c1cccc(F)c1)N(Cc1cnc2ccccc2c1)Cc1ccc(Cl)cc1Cl [Compound 109]
> 100 µM

Quickly give me recorded EC50 for CNC(=O)c1ccc(CN(Cc2ccc(Cl)cc2Cl)C(=O)c2cccc(F)c2)cn1 [Compound 144]
> 100 µM

Quickly give me recorded EC50 for O=C(c1ccc(-c2ccccc2)cc1)N(Cc1cccnc1)Cc1cc(Cl)cc(Cl)c1 [Compound 58]
> 100 µM

Quickly give me recorded EC50 for O=C(c1cc(F)ccc1F)N(Cc1cccnc1)Cc1ccc(Cl)cc1Cl [Compound 122]
> 100 µM

Quickly give me recorded EC50 for Cn1ncc2cc(CN(Cc3cccnc3)C(=O)c3cccc(F)c3)ccc21 [Compound 126]
> 100 µM

Quickly give me recorded EC50 for O=C(c1ccc(Cl)cc1Br)N(Cc1cccnc1)Cc1cc(Cl)cc(Cl)c1 [Compound 63]
> 100 µM

Quickly give me recorded EC50 for O=C(c1cc(Cl)c(O)c(Cl)c1)N(Cc1cccnc1)Cc1cc(Cl)cc(Cl)c1 [Compound 49]
> 100 µM
